Origin of measurements: ChEMBL document CHEMBL1134520

Bridge positions count the residues as written; N and C are the ends. Square brackets hold non-standard residues; d marks the D form. Peptide text beside a SMILES is read from it. Phe(4-NO2) = N[C@@H](Cc1ccc([N+](=O)[O-])cc1)C(=O)O; Phe(4-CH2NHiPr) = CC(C)NCc1ccc(C[C@H](N)C(=O)O)cc1; d2Nal = N[C@H](Cc1ccc2ccccc2c1)C(=O)O
Observed IC50 values for UniProt:P30872 are listed in what follows.
Sequence (P30872 whole entry): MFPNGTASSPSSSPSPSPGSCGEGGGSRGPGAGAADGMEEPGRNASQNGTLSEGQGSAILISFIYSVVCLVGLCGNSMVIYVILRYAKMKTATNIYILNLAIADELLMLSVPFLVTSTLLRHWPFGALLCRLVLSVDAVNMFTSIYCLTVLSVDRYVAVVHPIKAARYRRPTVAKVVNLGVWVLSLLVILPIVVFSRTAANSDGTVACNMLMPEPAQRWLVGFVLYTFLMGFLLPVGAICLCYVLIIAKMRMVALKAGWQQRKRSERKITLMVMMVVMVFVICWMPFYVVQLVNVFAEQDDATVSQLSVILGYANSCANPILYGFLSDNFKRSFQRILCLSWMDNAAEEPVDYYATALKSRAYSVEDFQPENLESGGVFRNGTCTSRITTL
Value and unit, in that order.

Known IC50 results, listed for orientation:
- molecule: "CC(C)NCc1ccc(C[C@@H]2NC(=O)[C@@H](Cc3ccc4ccccc4c3)NC(=O)[C@H](Cc3ccc([N+](=O)[O-])cc3)NC(=O)[C@H](Cc3ccccc3)NC(=O)[C@H](CCCCN)NC(=O)[C@@H](N)CSSC[C@@H](C(=O)O)NC(=O)[C@H](CO)NC(=O)[C@H]([C@@H](C)O)NC(=O)[C@H](Cc3ccccc3)NC(=O)[C@H]([C@@H](C)O)NC2=O)cc1 (H-CKF[Phe(4-NO2)][d2Nal][Phe(4-CH2NHiPr)]TFTSC-OH; disulfide 1-11)"
  test system: "UniProt:P30872"
  IC50: "35 nM"
- molecule: "CC(C)NCc1ccc(C[C@@H]2NC(=O)[C@@H](Cc3c[nH]c4ccccc34)NC(=O)[C@H](Cc3ccccc3)NC(=O)[C@H](Cc3ccccc3)NC(=O)[C@H](CC(N)=O)NC(=O)[C@H](CCCCN)NC(=O)[C@@H](N)CSSC[C@@H](C(=O)O)NC(=O)[C@H](CO)NC(=O)[C@H]([C@@H](C)O)NC(=O)[C@H](Cc3ccccc3)NC(=O)[C@H]([C@@H](C)O)NC2=O)cc1 (H-CKNFF[dW][Phe(4-CH2NHiPr)]TFTSC-OH; disulfide 1-12)"
  test system: "UniProt:P30872"
  IC50: "443 nM"
- molecule: "C[C@H](N)C(=O)NCC(=O)N[C@H]1CSSC[C@@H](C(=O)O)NC(=O)[C@H](CO)NC(=O)[C@H]([C@@H](C)O)NC(=O)[C@H](Cc2ccccc2)NC(=O)[C@H]([C@@H](C)O)NC(=O)[C@H](CCCCN)NC(=O)[C@@H](Cc2c[nH]c3ccccc23)NC(=O)[C@H](Cc2ccccc2)NC(=O)[C@H](Cc2ccccc2)NC(=O)[C@H](CCCCN)NC1=O (H-AGCKFF[dW]KTFTSC-OH; disulfide 3-13)"
  test system: "UniProt:P30872"
  IC50: "1 nM"
- molecule: "CC(C)NCc1ccc(C[C@@H]2NC(=O)[C@@H](Cc3c[nH]c4ccccc34)NC(=O)[C@H](Cc3ccccc3)NC(=O)[C@H](Cc3ccccc3)NC(=O)[C@H](CCCCN)NC(=O)[C@@H](N)CSSC[C@@H](C(=O)O)NC(=O)[C@@H](CO)NC(=O)[C@H]([C@@H](C)O)NC(=O)[C@H](Cc3ccccc3)NC(=O)[C@H]([C@@H](C)O)NC2=O)cc1 (H-CKFF[dW][Phe(4-CH2NHiPr)]TFT[dS]C-OH; disulfide 1-11)"
  test system: "UniProt:P30872"
  IC50: "187 nM"
- molecule: "CC(C)NCc1ccc(C[C@@H]2NC(=O)[C@@H](Cc3ccc4ccccc4c3)NC(=O)[C@H](Cc3ccccc3)NC(=O)[C@H](Cc3ccccc3)NC(=O)[C@H](CCCCN)NC(=O)[C@@H](N)CSSC[C@@H](C(=O)O)NC(=O)[C@H](CO)NC(=O)[C@H]([C@@H](C)O)NC(=O)[C@H](Cc3ccccc3)NC(=O)[C@H]([C@@H](C)O)NC2=O)cc1 (H-CKFF[d2Nal][Phe(4-CH2NHiPr)]TFTSC-OH; disulfide 1-11)"
  test system: "UniProt:P30872"
  IC50: "103 nM"

# ---- query molecule ----
Report value only: IC50, UniProt:P30872, `C[C@@H](O)[C@@H]1NC(=O)[C@H](Cc2ccccc2)NC(=O)[C@H]([C@@H](C)O)NC(=O)[C@H](CCCCN)NC(=O)[C@@H](Cc2c[nH]c3ccccc23)NC(=O)[C@H](Cc2ccccc2)NC(=O)[C@H](Cc2ccccc2)NC(=O)[C@H](CC(N)=O)NC(=O)[C@H](CCCCN)NC(=O)[C@@H](N)CSSC[C@@H](C(=O)O)NC(=O)[C@H](CO)NC1=O`
5.4 nM
